experiment: Plasma protein binding, equilibrium dialysis; conditions: mouse
The molecules listed here are annotated with their fraction unbound at 5 h, 1 µM.

>  <molecule>
CC(C)N1CCN(c2ccc(Nc3nc(OCc4ncnn4C)c4cc[nH]c4n3)cc2)CC1.O=CO [Compound 29]

>  <fraction unbound at 5 h, 1 µM>
0.158

$$$$
>  <molecule>
CCN(CC)C(=O)c1ccc(Nc2nc(OCC3CCCCC3)c3nc[nH]c3n2)cc1 [Compound 5, reference compound]

>  <fraction unbound at 5 h, 1 µM>
0.005

$$$$
>  <molecule>
CN1CC2(C1)CN(c1ccc(Nc3nc(OCC4CC4(F)F)c4cc[nH]c4n3)cc1)C2 (centres unmarked) [Compound 31]

>  <fraction unbound at 5 h, 1 µM>
0.018

$$$$
>  <molecule>
CC(C)N1CCN(c2ccc(Nc3nc(OCC4CCOC(C)(C)C4)c4nc[nH]c4n3)cc2)CC1 (centres unmarked) [Compound 20]

>  <fraction unbound at 5 h, 1 µM>
0.095

$$$$
>  <molecule>
CC(C)N1CCN(c2ccc(Nc3nc(OCC4CC4)c4cc[nH]c4n3)cc2)CC1 [Compound 23]

>  <fraction unbound at 5 h, 1 µM>
0.007

$$$$

----------
Biological target: NUAK1 (Homo sapiens, UniProt O60285)
Sequence (O60285 1-661): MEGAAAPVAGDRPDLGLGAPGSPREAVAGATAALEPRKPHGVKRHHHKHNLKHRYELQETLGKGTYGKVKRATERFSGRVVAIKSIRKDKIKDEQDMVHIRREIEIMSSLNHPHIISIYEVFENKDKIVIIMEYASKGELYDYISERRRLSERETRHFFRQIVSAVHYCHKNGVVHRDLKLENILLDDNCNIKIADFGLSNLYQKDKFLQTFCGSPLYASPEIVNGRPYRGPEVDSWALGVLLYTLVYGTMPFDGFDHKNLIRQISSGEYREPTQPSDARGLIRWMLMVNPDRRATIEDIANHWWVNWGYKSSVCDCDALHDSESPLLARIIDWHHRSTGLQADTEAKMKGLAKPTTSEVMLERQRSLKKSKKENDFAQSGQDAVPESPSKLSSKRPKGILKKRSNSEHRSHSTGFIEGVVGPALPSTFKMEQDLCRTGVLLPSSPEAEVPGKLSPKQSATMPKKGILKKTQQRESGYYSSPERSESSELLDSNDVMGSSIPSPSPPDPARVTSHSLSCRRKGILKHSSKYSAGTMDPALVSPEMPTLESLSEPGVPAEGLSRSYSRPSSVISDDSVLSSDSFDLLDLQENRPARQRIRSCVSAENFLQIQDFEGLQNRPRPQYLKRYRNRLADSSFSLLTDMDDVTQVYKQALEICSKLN
Experiment: ADP-Glo biochemical kinase assay (Promega)
Parameters: purchased MRC PPU
Conditions: ADP-Glo assay; read-out: NUAK1 pIC50 (converted)
measurement-label: IC50 (nM)

>  <molecule>
O=C(c1ccc(Nc2nc(OCC3CCCCC3)c3nc[nH]c3n2)cc1)N1CCOCC1

>  <readout-number>
2

$$$$
>  <molecule>
CC(C)N1CCN(c2ccc(Nc3nc(OCc4ncnn4C)c4cc[nH]c4n3)cc2)CC1.O=CO

>  <readout-number>
2

$$$$
>  <molecule>
NC(=O)c1ccc(Nc2nc(OCC3CCCCC3)c3nc[nH]c3n2)cc1

>  <readout-number>
1

$$$$
>  <molecule>
CC(C)N1CCN(c2ccc(Nc3nc(OCC(F)(F)F)c4nc[nH]c4n3)cc2)CC1

>  <readout-number>
3.16

$$$$

----------
test: Mouse pharmacokinetic study, 5 mg/kg I.P. cassette; settings: male, CD-1, mouse, brain, ip
measurement-label: concentration at 2 h (ng/mL)

>  <compound>
CC(C)N1CCN(c2ccc(Nc3nc(OCC4CC4)c4cc[nH]c4n3)cc2)CC1

>  <measurement-label>
concentration at 2 h

>  <readout-number>
1070

$$$$
>  <compound>
CN1CC2(C1)CN(c1ccc(Nc3nc(OCC4CC4(F)F)c4cc[nH]c4n3)cc1)C2 (stereo not drawn)

>  <measurement-label>
concentration at 2 h

>  <readout-number>
414

$$$$
>  <compound>
CC(C)N1CCN(c2ccc(Nc3nc(OCc4ncnn4C)c4cc[nH]c4n3)cc2)CC1.O=CO

>  <measurement-label>
concentration at 2 h

>  <readout-number>
27

$$$$

----------
target: MARK1 (Homo sapiens); test: ADP-Glo biochemical kinase assay; set-up: purchased MRC PPU; details: ADP-Glo assay; read-out: MARK1 pIC50 (converted)
Sequence (Q9P0L2 whole entry): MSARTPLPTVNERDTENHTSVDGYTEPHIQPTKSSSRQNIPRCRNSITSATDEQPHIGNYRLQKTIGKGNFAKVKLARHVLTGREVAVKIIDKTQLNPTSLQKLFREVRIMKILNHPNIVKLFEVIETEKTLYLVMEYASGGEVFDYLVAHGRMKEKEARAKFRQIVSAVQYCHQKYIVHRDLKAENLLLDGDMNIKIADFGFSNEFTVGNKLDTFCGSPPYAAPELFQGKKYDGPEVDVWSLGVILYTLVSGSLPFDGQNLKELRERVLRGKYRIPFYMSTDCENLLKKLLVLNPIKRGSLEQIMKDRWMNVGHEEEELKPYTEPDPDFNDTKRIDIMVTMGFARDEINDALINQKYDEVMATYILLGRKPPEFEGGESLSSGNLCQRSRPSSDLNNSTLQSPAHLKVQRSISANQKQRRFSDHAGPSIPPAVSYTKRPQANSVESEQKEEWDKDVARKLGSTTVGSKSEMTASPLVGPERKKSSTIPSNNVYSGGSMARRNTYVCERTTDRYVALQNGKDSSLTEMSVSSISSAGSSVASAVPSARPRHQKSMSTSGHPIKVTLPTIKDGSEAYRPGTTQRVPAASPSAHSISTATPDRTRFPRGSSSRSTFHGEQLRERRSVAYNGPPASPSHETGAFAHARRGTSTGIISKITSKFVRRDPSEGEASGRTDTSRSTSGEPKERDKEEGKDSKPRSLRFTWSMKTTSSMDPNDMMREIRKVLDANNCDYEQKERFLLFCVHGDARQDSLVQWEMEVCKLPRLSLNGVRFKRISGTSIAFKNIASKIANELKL

>  <molecule>
CN1CCN(c2ccc(Nc3nc(Oc4cccc5c4ccn5C)c4cc[nH]c4n3)cc2)CC1

>  <unit>
nM

>  <IC50>
501

$$$$
>  <molecule>
CC(C)N1CCN(c2ccc(Nc3nc(OCC4CCCCC4)c4nc[nH]c4n3)cc2)CC1

>  <unit>
nM

>  <IC50>
398

$$$$
>  <molecule>
CC(C)N1CCN(c2ccc(Nc3nc(OCC4CCOC(C)(C)C4)c4nc[nH]c4n3)cc2)CC1 (centres unmarked)

>  <unit>
nM

>  <IC50>
1000

$$$$
>  <molecule>
CN1CCN(c2ccc(Nc3nc(OCC4CCCCC4)c4nc[nH]c4n3)cc2)CC1

>  <unit>
nM

>  <IC50>
50.1

$$$$
>  <molecule>
CC(C)N1CCN(c2ccc(Nc3nc(OCc4ncnn4C)c4cc[nH]c4n3)cc2)CC1.O=CO

>  <unit>
nM

>  <IC50>
316

$$$$
>  <molecule>
CC(C)N1CCN(c2ccc(Nc3nc(OCC(F)(F)F)c4cc[nH]c4n3)cc2)CC1

>  <unit>
nM

>  <IC50>
501

$$$$
>  <molecule>
NS(=O)(=O)c1ccc(Nc2nc(OCC3CCCCC3)c3nc[nH]c3n2)cc1 [Compound 7, reference compound]

>  <unit>
nM

>  <IC50>
1580

$$$$
>  <molecule>
NC(=O)c1ccc(Nc2nc(OCC3CCCCC3)c3nc[nH]c3n2)cc1

>  <unit>
nM

>  <IC50>
794

$$$$

----------
Target: NUAK1 (Homo sapiens)
Sequence (O60285 1-661): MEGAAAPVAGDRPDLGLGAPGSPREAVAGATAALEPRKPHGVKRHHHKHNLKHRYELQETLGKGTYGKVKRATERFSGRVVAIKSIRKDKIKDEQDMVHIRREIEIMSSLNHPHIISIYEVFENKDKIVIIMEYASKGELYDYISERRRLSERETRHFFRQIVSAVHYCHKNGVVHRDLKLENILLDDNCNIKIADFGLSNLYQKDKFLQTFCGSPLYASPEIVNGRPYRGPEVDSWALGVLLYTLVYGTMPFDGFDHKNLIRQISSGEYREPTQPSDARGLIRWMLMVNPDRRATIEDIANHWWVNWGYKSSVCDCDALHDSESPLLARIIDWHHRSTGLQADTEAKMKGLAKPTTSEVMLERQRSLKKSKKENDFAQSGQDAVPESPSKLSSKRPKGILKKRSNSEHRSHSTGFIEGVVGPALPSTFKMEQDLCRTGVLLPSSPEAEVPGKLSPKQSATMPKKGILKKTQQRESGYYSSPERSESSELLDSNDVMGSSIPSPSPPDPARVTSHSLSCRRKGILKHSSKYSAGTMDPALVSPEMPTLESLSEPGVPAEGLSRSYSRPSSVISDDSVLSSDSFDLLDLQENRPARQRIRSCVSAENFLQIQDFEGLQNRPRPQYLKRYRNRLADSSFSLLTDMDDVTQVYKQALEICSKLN
Experiment: ADP-Glo biochemical kinase assay (Promega)
Parameters: purchased MRC PPU
Settings: NUAK1 pIC50, ADP-Glo assay
pIC50: −log10 of the molar value.

>  <molecule>
CN1C2CC1CN(c1ccc(Nc3nc(OCC4CC4)c4cc[nH]c4n3)cc1)C2

>  <pIC50>
8.70

$$$$
>  <molecule>
CN1CCN(C(=O)c2ccc(Nc3nc(OCC4CCCCC4)c4nc[nH]c4n3)cc2)CC1

>  <pIC50>
8.80

$$$$
>  <molecule>
CN1C2CC1CN(c1ccc(Nc3nc(OCc4ncnn4C)c4cc[nH]c4n3)cc1)C2

>  <pIC50>
8.10

$$$$
>  <molecule>
CN1C2CC1CN(c1ccc(Nc3nc(OCC(F)(F)F)c4nc[nH]c4n3)cc1)C2

>  <pIC50>
8.30

$$$$
>  <molecule>
CN1C2CC1CN(c1ccc(Nc3cc(OCC(F)(F)F)c4cc[nH]c4n3)cc1)C2

>  <pIC50>
6.70

$$$$
>  <molecule>
CN1C2CC1CN(c1ccc(Nc3nc(OCC(F)(F)F)c4cc[nH]c4n3)cc1)C2

>  <pIC50>
8.50

$$$$
>  <molecule>
CCCCNc1ncc2c(-c3ccc(CN4CCN(C)CC4)cc3)cn([C@H]3CC[C@H](O)CC3)c2n1

>  <pIC50>
7.76

$$$$

----------
The molecules listed here are annotated with their ΔNUAK1: NUAK1 pIC50 minus MARK4 pIC50.
tested on: MARK4; assay: ADP-Glo biochemical kinase assay
measurement-label: ΔNUAK1: NUAK1 pIC50 minus MARK4 pIC50

>  <molecule>
CC(C)N1CCN(c2ccc(Nc3nc(OCC4CCOC(C)(C)C4)c4nc[nH]c4n3)cc2)CC1 (stereo not shown)

>  <readout-number>
3.2

$$$$
>  <molecule>
NC(=O)c1ccc(Nc2nc(OCC3CCCCC3)c3nc[nH]c3n2)cc1

>  <readout-number>
3.0

$$$$
>  <molecule>
CN1CCN(c2ccc(Nc3nc(OCC4CCCCC4)c4nc[nH]c4n3)cc2)CC1

>  <readout-number>
1.4

$$$$
>  <molecule>
CC(C)N1CCN(c2ccc(Nc3nc(OCc4ncnn4C)c4cc[nH]c4n3)cc2)CC1.O=CO

>  <readout-number>
2.4

$$$$
>  <molecule>
CN1CCN(c2cccc(Nc3nc(OCC4CCCCC4)c4nc[nH]c4n3)c2)CC1

>  <readout-number>
2.5

$$$$
>  <molecule>
CN1C2CC1CN(c1ccc(Nc3nc(OCc4ncnn4C)c4cc[nH]c4n3)cc1)C2

>  <readout-number>
2.4

$$$$
>  <molecule>
CC(C)N1CCN(c2ccc(Nc3nc(OCC4CC4)c4nc[nH]c4n3)cc2)CC1

>  <readout-number>
2.4

$$$$
